Assignment: determine reported protein stability index for the given variants.
B1: ZNF263 (parent)
chain: QPKKLHLCPLCGKNFSNNSNLIRH

Variants of: B1
protocol text: protein stability index of a GFP-peptide fusion (GPS, HEK-293T) (PSI 1-6); higher = more stable;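 also: lentivirally expressed fusions sorted by FACS into six bins by GFP to DsRed ratio, PSI derived from sequencing read proportions per bin multiplied by bin number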
study conditions: c terminus: a fixed tail appended
Reply briefly: the number, and no unit.

Enquiry: For QPKKLHLCPLCGKHFSNNSNLIRH , what is its reported protein stability index?
Return: 3.06

Enquiry: Recorded protein stability index of QPKKLHLCPLCGKNFSNNSNLIRQ , please.
Return: 2.43

Enquiry: Requested read-out: protein stability index. Entry: QPKKLHLCPLCGKNTSNNSNLIRH
Return: 1.95

Enquiry: Fill blank: measured protein stability index of the variant QPKKLHLCPLCGKNFSNNSNLILH is ____.
Return: 2

Enquiry: # lookup: protein stability index of QPKKLHLCPLCGKNFSNNSNLIRW
Return: 2.38

Enquiry: Name the recorded protein stability index for QPKKLHLCPLCGKNFSQNSNLIRH .
Return: 2.42

Enquiry: Report protein stability index for SPKKLHLCPLCGKNFSNNSNLIRH please.
Return: 2.39

Enquiry: Fill in: protein stability index of QPKKLHLAPLCGKNFSNNSNLIRH is ___
Return: 2.83

Enquiry: What value of measured protein stability index is listed for QPKKPHLCPLCGKNFSNNSNLIRH ?
Return: 2.09

Enquiry: Which protein stability index is listed for QPKKLHLCPLCGKNFSNNSNLIRE ?
Return: 2.43

Enquiry: Name the recorded protein stability index for QPKKLHLCPLCGKNFHNNSNLIRH .
Return: 2.42

Enquiry: Query (variant): QPKKLHLCPLCGKNFSNNSPLIRH ; field requested: protein stability index
Return: 2.49

Enquiry: Please look up its protein stability index: QPKKRHLCPLCGKNFSNNSNLIRH
Return: 2.37

Enquiry: Bench note: what protein stability index did QPKKLHLCPLCGKCFSNNSNLIRH show?
Return: 3.93

Enquiry: # protein stability index lookup, item QPKKLHLCPLCRKNFSNNSNLIRH
Return: 2.34

Enquiry: Recorded protein stability index for QPKKLHLGPLCGKNFSNNSNLIRH , please?
Return: 2.85

Enquiry: Using the record for QPKKLHLCPLCGKNRSNNSNLIRH , report its protein stability index.
Return: 2.61

Enquiry: Which protein stability index is listed for QPKKLHLCPLCSKNFSNNSNLIRH ?
Return: 1.99

Enquiry: Please give the measured protein stability index for this variant: QPKKLHLCPLCGCNFSNNSNLIRH
Return: 2.47

Enquiry: For QPKKLHLCPLDGKNFSNNSNLIRH , what is its reported protein stability index?
Return: 3.58

Enquiry: Reported protein stability index, variant QPKKLHLCPLCGKNFSNDSNLIRH : ____
Return: 2.8

Enquiry: Can you look up the measured protein stability index of QPKKLHLCPLCGKNFSNNSNDIRH for me?
Return: 2.72
